# Test system: UniProtKB P48736
# Sequence (P48736 whole entry): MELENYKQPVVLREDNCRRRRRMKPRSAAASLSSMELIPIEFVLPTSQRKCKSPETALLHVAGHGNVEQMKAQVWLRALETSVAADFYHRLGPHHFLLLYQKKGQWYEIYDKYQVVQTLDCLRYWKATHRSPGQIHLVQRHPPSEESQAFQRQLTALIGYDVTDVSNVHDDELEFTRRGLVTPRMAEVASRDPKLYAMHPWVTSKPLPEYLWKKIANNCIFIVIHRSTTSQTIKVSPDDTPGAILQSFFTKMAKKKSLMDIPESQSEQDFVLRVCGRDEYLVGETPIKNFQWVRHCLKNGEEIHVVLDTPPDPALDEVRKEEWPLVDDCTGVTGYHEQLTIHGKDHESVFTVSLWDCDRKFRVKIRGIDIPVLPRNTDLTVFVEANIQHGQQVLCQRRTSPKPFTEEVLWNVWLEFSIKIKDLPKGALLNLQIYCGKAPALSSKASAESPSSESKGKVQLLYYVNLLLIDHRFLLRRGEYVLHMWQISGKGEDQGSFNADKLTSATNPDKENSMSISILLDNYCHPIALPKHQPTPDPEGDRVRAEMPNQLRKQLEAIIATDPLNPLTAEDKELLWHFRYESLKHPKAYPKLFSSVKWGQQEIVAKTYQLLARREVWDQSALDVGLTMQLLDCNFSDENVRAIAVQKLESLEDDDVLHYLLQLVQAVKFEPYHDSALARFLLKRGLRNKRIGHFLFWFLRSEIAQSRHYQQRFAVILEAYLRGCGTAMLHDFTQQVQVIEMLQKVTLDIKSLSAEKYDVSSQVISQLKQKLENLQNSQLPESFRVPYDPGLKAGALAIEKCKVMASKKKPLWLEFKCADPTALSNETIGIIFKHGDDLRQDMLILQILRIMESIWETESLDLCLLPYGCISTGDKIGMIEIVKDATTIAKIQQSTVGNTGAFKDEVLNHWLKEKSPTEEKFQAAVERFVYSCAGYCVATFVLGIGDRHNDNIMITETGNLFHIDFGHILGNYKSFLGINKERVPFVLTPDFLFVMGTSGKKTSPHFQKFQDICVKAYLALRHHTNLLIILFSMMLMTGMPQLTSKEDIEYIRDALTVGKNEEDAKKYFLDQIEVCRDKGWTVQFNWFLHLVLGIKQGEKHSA
pIC50: −log10 of the molar value.
Reported values of pIC50 for individual entries
Measure: pIC50

Smiles	Test system	Measure	Observed value
C[C@H](Nc1c(C#N)cnc2cccnc12)c1cc2cccc(-c3cnn(C)c3)c2c(=O)n1-c1ccccc1	UniProtKB P48736	pIC50	5.00 to 6.00
C[C@H](Nc1ncnc2cccnc12)c1cc2cc(F)ccc2c(=O)n1-c1ccccc1	UniProtKB P48736	pIC50	5.00 to 6.00
C[C@H](Nc1ncnc2cccnc12)c1cc2scc(C(F)(F)F)c2c(=O)n1-c1ccccc1	UniProtKB P48736	pIC50	5.00 to 6.00
CC(C)n1c([C@H](C)Nc2ncnc3cccnc23)cc2cccc(-c3ccc(=O)n(C)c3)c2c1=O	UniProtKB P48736	pIC50	5.00 to 6.00
C[C@@H](Nc1ncnc2cc(F)c(F)cc12)c1cc2cccc(Cl)c2c(=O)n1-c1ccccc1	UniProtKB P48736	pIC50	< 5.00
